# Test system: L1210 mouse leukemia cells
# method-description: Effect in prolonging the life of mouse with cancer (L1210), Test Example 1
# Type: in vivo, DBA/2 mice
# run-conditions: L1210; 17.5 mg/kg, i.p. once; 30 days observation
outcome-measure: T/C (%) of ST (ratio of survival time of test and control animals)

[
  {
    "smi": "C[C@H](N)c1ccccc1.C[C@H](N)c1ccccc1.[Cl][Pt][Cl]",
    "subject-of-test": "L1210 mouse leukemia cells",
    "result": "> 260%"
  },
  {
    "smi": "NCc1ccco1.NCc1ccco1.[I][Pt][I]",
    "subject-of-test": "L1210 mouse leukemia cells",
    "result": "> 200%"
  },
  {
    "smi": "C[C@H](N)c1ccccc1.C[C@H](N)c1ccccc1.[I][Pt][I]",
    "subject-of-test": "L1210 mouse leukemia cells",
    "result": "> 226%"
  }
]

Problem: I would be grateful if you could share the reported T/C (%) of ST (ratio of survival time of test and control animals) for C[C@@H](N)c1ccccc1.C[C@@H](N)c1ccccc1.[I][Pt][I] .
Solution: > 220%

Problem: I would be grateful if you could share the reported T/C (%) of ST (ratio of survival time of test and control animals) for C[C@@H](N)c1ccccc1.C[C@@H](N)c1ccccc1.[Cl][Pt][Cl] .
Solution: > 246%

Problem: I would be grateful if you could share the reported T/C (%) of ST (ratio of survival time of test and control animals) for NCc1ccc(CO)o1.NCc1ccc(CO)o1.[I][Pt][I] .
Solution: > 215%

Problem: I would be grateful if you could share the reported T/C (%) of ST (ratio of survival time of test and control animals) for NCc1ccc(Br)cc1.NCc1ccc(Br)cc1.[I][Pt][I] .
Solution: > 150%

====

# Test system: S180 sarcoma cells
# method-description: Effect in prolonging the life of mouse with cancer (S180), Test Example 2
# Type: in vivo, DBA/2 mice
# run-conditions: 10 mg/kg, i.p. once, 30 days observation
outcome-measure: T/C (%) of ST (ratio of survival time of test and control animals)

Answered cases to consult:
[
  {
    "smi": "NCc1ccccc1Br.NCc1ccccc1Br.[Cl][Pt][Cl]",
    "result": "> 184%"
  },
  {
    "smi": "NCc1ccc(Cl)cc1.NCc1ccc(Cl)cc1.[I][Pt][I]",
    "result": "> 140%"
  },
  {
    "smi": "NCc1ccc(Cl)cc1.NCc1ccc(Cl)cc1.O=C([O-])C1(C(=O)[O-])CCC1.[Pt+2]",
    "result": "> 202%"
  },
  {
    "smi": "NCc1ccc(C(=O)O)cc1.NCc1ccc(C(=O)O)cc1.[I][Pt][I]",
    "result": "> 230%"
  }
]

Please look at the following molecule next.
Problem: I would be grateful if you could share the reported T/C (%) of ST (ratio of survival time of test and control animals) for NCc1ccc(C(=O)O)cc1.NCc1ccc(C(=O)O)cc1.[Cl][Pt][Cl] .
Solution: > 255%

====

# run-conditions: water
In plain terms, low Solubility, meaning strictly below 800 µg/mL, gives true, and everything else gives false.

Example results:
[
  {
    "molecule": "NCc1ccc(Cl)c(O)c1.NCc1ccc(Cl)c(O)c1.[Cl][Pt][Cl] [drawing 210]",
    "category-label": "false"
  },
  {
    "molecule": "N[C@@H]1COCO[C@@H]1c1ccccc1.N[C@@H]1COCO[C@@H]1c1ccccc1.[Cl][Pt][Cl]",
    "category-label": "true"
  },
  {
    "molecule": "NCc1cc(C(=O)O)c(C(=O)O)cc1CN.[I][Pt][I]",
    "category-label": "false"
  }
]

Problem: For the molecule NCc1ccc(CO)o1.NCc1ccc(CO)o1.[I][Pt][I] [drawing 215] , is Solubility under 800 µg/mL?
Solution: true
